The entries below come with measured GI50 values attached.
- Tested on: TK-10
- assay remarks: NCI tumour cell line growth inhibition, 48 h
Activity calls are given as the source filed them. No stated cut-off is given here; in the data, active = GI50 up to about 1.1 µM and inactive = higher.

[[record]]
compound = "COc1ccc(-n2nnc3c(C#N)c(-c4ccccc4)c(C)n3c2=O)cc1"
measured_endpoint = "GI50"
measured_value = "84.7 µM (inactive)"


Would you kindly look at the next entry?
Exam item: Any idea what GI50 was measured for CS(=O)(=O)OCCCCOS(=O)(=O)CF ?
Marked response: > 100 µM (inactive)

====

- Test system: CAKI-1
- assay remarks: NCI tumour cell line growth inhibition, 48 h
Calls of active or inactive are those of the source. Cut-off read from the data, not from the text of the source: active = GI50 up to about 1.1 µM and inactive = higher.
// allowed return values: TRUE = active, FALSE = inactive

[[record]]
compound = "CN(C)c1ccc(C=C2N=C(c3ccccc3)N(c3cc(C(=O)c4ccccc4)ccc3N3C(=O)/C(=C/c4ccc(N(C)C)cc4)N=C3c3ccccc3)C2=O)cc1"
answer_label = "FALSE"

[[record]]
compound = "COc1ncc(C=C(C#N)C#N)c(OC)n1"
answer_label = "FALSE"

[[record]]
compound = "CN1CCCN2CCN(C)CCN(CC1)CC2"
answer_label = "FALSE"

[[record]]
compound = "O=C1c2ccccc2CCC1C(O)(C(F)(F)F)C(F)(F)F (stereo unspecified)"
answer_label = "FALSE"

[[record]]
compound = "C[C@H](CCC(=O)NCCS(=O)(=O)O)[C@H]1CC[C@H]2[C@@H]3[C@H](O)C[C@@H]4C[C@H](O)CC[C@]4(C)[C@H]3CC[C@]12C"
answer_label = "FALSE"

[[record]]
compound = "CC(C)(C)OC(=O)NC(CSCc1ccc(C(=O)c2ccccc2)cc1)C(=O)N1CCN(CCCCN2c3ccccc3Sc3cc(N=[N+]=[N-])ccc32)CC1 (stereo unspecified)"
answer_label = "FALSE"

[[record]]
compound = "CCOC(=O)NC(=O)c1cn(CCNCCO)c(=O)[nH]c1=O"
answer_label = "FALSE"

[[record]]
compound = "COC(C)C(O)(C(=O)OCC1=CCN2CCC(O)C12)C(C)(C)O (stereo unspecified)"
answer_label = "FALSE"

[[record]]
compound = "CN(C)c1ccc(C2ON=C(c3ccccc3)N2C23CC4CC(CC(C4)C2)C3)cc1 (stereo unspecified)"
answer_label = "FALSE"

[[record]]
compound = "CCN(CC)c1ccc2cc(C(=O)Nc3ccc4[nH]c(C(=O)N5C[C@@H](CCl)c6c5cc(OC(=O)Nc5ccccc5)c5[nH]cc(C)c65)cc4c3)oc2c1"
answer_label = "TRUE"


Exam item: Given Cn1c(=O)[nH]c2c(c1=O)C(=O)CN2 , state the outcome it received in this test.
Marked response: FALSE

Exam item: Assay result, entry OC(c1ccccc1)(c1ccccc1)c1ccncc1 — outcome?
Marked response: FALSE
